// provenance: the supplement of paper PMC5998384

System: HeLa Kyoto;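 note: HeLa Kyoto cells arrested at G1/S by double thymidine block, proteins quantified by TMT10plex mass spectrometry in mild NP-40 versus SDS extracts, three biological replicates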
protocol-summary: solubility in G1/S (NP-40 vs SDS abundance) (log2 ratio); higher = more soluble
reported-conditions: cell cycle stage: G1/S
Give solubility in G1/S (log2) for every item shown.

Provide each entry's solubility in G1/S (log2) from the list below.
1. MASRGKTETSKLKQNLEEQLDRLMQQLQDLEECREELDTDEYEETKKETLEQLSEFNDSLKKIMSGNMTLVDELSGMQLAIQAAISQAFKTPEVIRLFAKKQPGQLRTRLAEMDRDLMVGKLERDLYTQQKVEILTALRKLGEKLTADDEAFLSANAGAILSQFEKVSTDLGSGDKILALASFEVEKTKK [LZIC]
2. MAQPPPDVEGDDCLPAYRHLFCPDLLRDKVAFITGGGSGIGFRIAEIFMRHGCHTVIASRSLPRVLTAARKLAGATGRRCLPLSMDVRAPPAVMAAVDQALKEFGRIDILINCAAGNFLCPAGALSFNAFKTVMDIDTSGTFNVSRVLYEKFFRDHGGVIVNITATLGNRGQALQVHAGSAKAAVDAMTRHLAVEWGPQNIRVNSLAPGPISGTEGLRRLGGPQASLSTKVTASPLQRLGNKTEIAHSVLYLASPLASYVTGAVLVADGGAWLTFPNGVKGLPDFASFSAKL [DECR2]
3. MAGLGHPAAFGRATHAVVRALPESLGQHALRSAKGEEVDVARAERQHQLYVGVLGSKLGLQVVELPADESLPDCVFVEDVAVVCEETALITRPGAPSRRKEVDMMKEALEKLQLNIVEMKDENATLDGGDVLFTGREFFVGLSKRTNQRGAEILADTFKDYAVSTVPVADGLHLKSFCSMAGPNLIAIGSSESAQKALKIMQQMSDHRYDKLTVPDDIAANCIYLNIPNKGHVLLHRTPEEYPESAKVYEKLKDHMLIPVSMSELEKVDGLLTCCSVLINKKVDS [DDAH1]
4. MAAAEEGCSVGAEADRELEELLESALDDFDKAKPSPAPPSTTTAPDASGPQKRSPGDTAKDALFASQEKFFQELFDSELASQATAEFEKAMKELAEEEPHLVEQFQKLSEAAGRVGSDMTSQQEFTSCLKETLSGLAKNATDLQNSSMSEEELTKAMEGLGMDEGDGEGNILPIMQSIMQNLLSKDVLYPSLKEITEKYPEWLQSHRESLPPEQFEKYQEQHSVMCKICEQFEAETPTDSETTQKARFEMVLDLMQQLQDLGHPPKELAGEMPPGLNFDLDALNLSGPPGASGEQCLIM [G3V3G9]
5. MTDQAFVTLTTNDAYAKGALVLGSSLKQHRTTRRLVVLATPQVSDSMRKVLETVFDEVIMVDVLDSGDSAHLTLMKRPELGVTLTKLHCWSLTQYSKCVFMDADTLVLANIDDLFDREELSAAPDPGWPDCFNSGVFVYQPSVETYNQLLHLASEQGSFDGGDQGILNTFFSSWATTDIRKHLPFIYNLSSISIYSYLPAFKVFGASAKVVHFLGRVKPWNYTYDPKTKSVKSEAHDPNMTHPEFLILWWNIFTTNVLPLLQQFGLVKDTCSYVNVLSDLVYTLAFSCGFCRKEDVSGAISHLSLGEIPAMAQPFVSSEERKERWEQGQADYMGADSFDNIKRKLDTYLQ [GYG1]
6. MSNKEGSGGFRKRKHDNFPHNQRREGKDVNSSSPVMLAFKSFQQELDARHDKYERLVKLSRDITVESKRTIFLLHRITSAPDMEDILTESEIKLDGVRQKIFQVAQELSGEDMHQFHRAITTGLQEYVEAVSFQHFIKTRSLISMDEINKQLIFTTEDNGKENKTPSSDAQDKQFGTWRLRVTPVDYLLGVADLTGELMRMCINSVGNGDIDTPFEVSQFLRQVYDGFSFIGNTGPYEVSKKLYTLKQSLAKVENACYALKVRGSEIPKHMLADVFSVKTEMIDQEEGIS [TSNAX]

Data returned:
0.367
0.0495
0.157
-0.172
0.0958
0.379
